Tested on: LoVo
PROTOCOL_NOTES: Cytotoxicity against human doxorubicin resistant LoVo cells after 48 hrs by SRB assay
Assay type: functional
ENDPOINT_NAME: TGI (nM)
Give the number; nM is assumed, so skip it.

STRUCTURE_SMILES_STRING	ENDPOINT_NAME	ENDPOINT_RESULT
C/C=C1\NC(=O)[C@H](Cc2ccccc2)NC(=O)[C@@H](C(C)C)NC(=O)[C@@H]([C@H](C)CC)NC(=O)[C@H](NC(=O)[C@H](NC(=O)[C@H](CCCN)NC(=O)[C@H]2CCCN2C(=O)[C@H](NC(=O)[C@@H](NC(=O)[C@@H](NC(=O)[C@H](NC(=O)CC[C@@H](C)[C@H]2CC[C@H]3[C@@H]4CC[C@@H]5C[C@H](OC(=O)C(F)(F)F)CC[C@]5(C)[C@H]4CC[C@]23C)C(C)C)[C@@H](C)O)C(C)C)C(C)C)[C@H](C)CC)[C@H](C)OC(=O)[C@H](C(C)C)NC1=O	TGI	220
C/C=C1\NC(=O)[C@H](Cc2ccccc2)NC(=O)[C@@H](C(C)C)NC(=O)[C@@H]([C@H](C)CC)NC(=O)[C@H](NC(=O)[C@H](NC(=O)[C@H](CCCN)NC(=O)[C@H]2Cc3ccccc3CN2C(=O)[C@H](NC(=O)[C@@H](NC(=O)[C@@H](NC(=O)[C@H](NC(=O)CC[C@@H](C)CC)C(C)C)[C@@H](C)O)C(C)C)C(C)C)[C@H](C)CC)[C@H](C)OC(=O)[C@H](C(C)C)NC1=O	TGI	2490

Report TGI for `C/C=C1\NC(=O)[C@H](Cc2ccccc2)NC(=O)[C@@H](C(C)C)NC(=O)[C@@H]([C@H](C)CC)NC(=O)[C@H](NC(=O)[C@H](NC(=O)[C@H](CCCNC(=O)CCC2CCCCC2)NC(=O)[C@H]2CCCN2C(=O)[C@H](NC(=O)[C@@H](NC(=O)[C@@H](NC(=O)[C@H](NC(=O)CCCC(C)C)C(C)C)[C@@H](C)O)C(C)C)C(C)C)[C@H](C)CC)[C@H](C)OC(=O)[C@H](C(C)C)NC1=O` tested on LoVo.
93.7

Report TGI for `C/C=C1\NC(=O)[C@H](Cc2ccccc2)NC(=O)[C@@H](C(C)C)NC(=O)[C@@H]([C@H](C)CC)NC(=O)[C@H](NC(=O)[C@H](NC(=O)[C@H](CCCN)NC(=O)[C@H]2CCCN2C(=O)[C@H](NC(=O)[C@@H](NC(=O)[C@@H](NC(=O)[C@@H](CCC(N)=O)NC(=O)CCCC(C)C)[C@@H](C)O)C(C)C)C(C)C)[C@H](C)CC)[C@H](C)OC(=O)[C@H](C(C)C)NC1=O` tested on LoVo.
1080

Report TGI for `C/C=C1\NC(=O)[C@H](Cc2ccccc2)NC(=O)[C@@H](C(C)C)NC(=O)[C@@H]([C@H](C)CC)NC(=O)[C@H](NC(=O)[C@H](NC(=O)[C@H](CCCN)NC(=O)[C@H]2CCCN2C(=O)[C@H](NC(=O)[C@@H](NC(=O)[C@H](C)NC(=O)[C@H](NC(=O)CCCC(C)C)C(C)C)C(C)C)C(C)C)[C@H](C)CC)[C@H](C)OC(=O)[C@H](C(C)C)NC1=O` tested on LoVo.
1190

Report TGI for `CC[C@@H](C)[C@@H](NC(=O)[C@H](CCCN)NC(=O)[C@H]1CCCN1C(=O)[C@H](NC(=O)[C@@H](NC(=O)[C@@H](NC(=O)[C@H](NC(=O)CCCC(C)C)C(C)C)[C@@H](C)O)C(C)C)C(C)C)C(=O)N[C@H]1C(=O)N[C@H]([C@H](C)CC)C(=O)N[C@H](C(C)C)C(=O)N[C@@H](Cc2ccccc2)C(=O)N[C@H](CC)C(=O)N[C@@H](C(C)C)C(=O)O[C@H]1C` tested on LoVo.
2000

Report TGI for `C/C=C1\NC(=O)[C@H](Cc2ccccc2)NC(=O)[C@@H](C(C)C)NC(=O)[C@@H]([C@H](C)CC)NC(=O)[C@H](NC(=O)[C@H](NC(=O)[C@H](CCCN)NC(=O)[C@H]2CCCN2C(=O)[C@H](NC(=O)[C@@H](NC(=O)[C@@H](NC(=O)[C@H](NC(=O)CCCCC(C)=O)C(C)C)[C@@H](C)O)C(C)C)C(C)C)[C@H](C)CC)[C@H](C)OC(=O)[C@H](C(C)C)NC1=O` tested on LoVo.
7660
